- tgt: T1, human CD137-Fc (human, biotin-labeled)
- T1 construct: if 90 already holds the Fc, drop the second piece; also called biotin-labeled human CD137 fused to human IgG1 Fc fragment; biotin-human CD137-Fc; not shown: human IgG1 Fc fragment
- assayComment: bead ELISA, IgG on biotinylated antigen, luminescence;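 further: biotinylated antigen captured on streptavidin magnetic beads, then incubated with purified IgG at 50 ng/µL for 1 h at room temperature before detection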

binder	S/N ratio (human CD137-Fc/Fc)
DXDU01_3#051 (antibody, V domains shown, Human IgG1; light chain GLS3000 (kappa); also called dBBDu127) VH: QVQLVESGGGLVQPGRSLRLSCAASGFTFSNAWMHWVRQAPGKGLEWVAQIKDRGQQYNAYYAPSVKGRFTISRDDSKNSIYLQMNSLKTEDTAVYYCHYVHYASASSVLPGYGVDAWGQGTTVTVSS VL: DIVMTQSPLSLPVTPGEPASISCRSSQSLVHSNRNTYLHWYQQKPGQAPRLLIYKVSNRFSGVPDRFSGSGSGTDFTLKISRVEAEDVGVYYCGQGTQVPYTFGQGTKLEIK	13.1
